FYI, the data here is from patent US20250206714A1.

- tested-target: CYP 1A2 (Homo sapiens)
- Construct: The experiment was conducted in human liver microsomes; from tissue; host or cells: human liver microsomes
- Sequence (P05177 1-516): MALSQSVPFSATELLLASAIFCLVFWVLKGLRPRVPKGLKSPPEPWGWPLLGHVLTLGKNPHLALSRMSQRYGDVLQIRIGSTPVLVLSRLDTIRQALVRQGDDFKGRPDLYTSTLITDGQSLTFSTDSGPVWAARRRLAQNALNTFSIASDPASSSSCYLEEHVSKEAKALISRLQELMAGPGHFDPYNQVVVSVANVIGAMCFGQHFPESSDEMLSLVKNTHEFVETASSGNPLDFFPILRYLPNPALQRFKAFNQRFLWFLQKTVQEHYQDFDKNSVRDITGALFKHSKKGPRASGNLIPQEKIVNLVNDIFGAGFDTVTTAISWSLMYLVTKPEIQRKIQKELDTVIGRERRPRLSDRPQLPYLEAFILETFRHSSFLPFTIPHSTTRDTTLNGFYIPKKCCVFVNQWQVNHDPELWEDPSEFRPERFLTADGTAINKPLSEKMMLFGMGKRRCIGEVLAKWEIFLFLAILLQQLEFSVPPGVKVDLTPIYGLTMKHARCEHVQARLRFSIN
- assay-summary: Metabolic stability in human liver microsomes with CYP 1A2 inhibitor Furafylline
- Format: in vitro ADME
- setup-conditions: pH 7.4, with Furafylline 20 μM, 1 μM + Furafylline (20 μM), read-out: mCLint
For each of the compounds below, state its microsomal CLint at 1 μM.
Answer with the figure and its unit, nothing else.

Query block: Determine its reported microsomal CLint at 1 μM: CCOc1ccc(NC(C)=O)cc1 [Phenacetin, reference compound]
Result block: 13.6 µL/min/mg

Query block: Complete the entry with microsomal CLint at 1 μM for O=C1Nc2ccccc2N(C(=O)CCl)c2ccc(F)cc21 [Compound 6]
Result block: 22.5 µL/min/mg

----------
- assay-summary: Metabolic stability assay in human liver microsomes in the presence of specific cytochrome P450 inhibitors (arm without inhibitor, summary statements)
- setup-conditions: human, human liver microsomes, pH 7.4
Assignment: determine reported half-life at 1 µM for the given compounds.
Answer in h, number only, no unit symbol.

Query block: Indicate the recorded half-life at 1 µM value for this compound: `O=C1Nc2ccccc2N(C(=O)CCl)c2ccc(F)cc21`
Result block: 1.6

Query block: Give half-life at 1 µM for COc1ccc2[nH]c([S+]([O-])Cc3ncc(C)c(OC)c3C)nc2c1 (centres unmarked) [Omeprazole, reference compound]
Result block: 0.44

----------
- tested-target: CYP2D6 (Homo sapiens)
- Construct: The experiment was conducted in human liver microsomes; from tissue; host or cells: human liver microsomes
- Sequence (P10635 whole entry): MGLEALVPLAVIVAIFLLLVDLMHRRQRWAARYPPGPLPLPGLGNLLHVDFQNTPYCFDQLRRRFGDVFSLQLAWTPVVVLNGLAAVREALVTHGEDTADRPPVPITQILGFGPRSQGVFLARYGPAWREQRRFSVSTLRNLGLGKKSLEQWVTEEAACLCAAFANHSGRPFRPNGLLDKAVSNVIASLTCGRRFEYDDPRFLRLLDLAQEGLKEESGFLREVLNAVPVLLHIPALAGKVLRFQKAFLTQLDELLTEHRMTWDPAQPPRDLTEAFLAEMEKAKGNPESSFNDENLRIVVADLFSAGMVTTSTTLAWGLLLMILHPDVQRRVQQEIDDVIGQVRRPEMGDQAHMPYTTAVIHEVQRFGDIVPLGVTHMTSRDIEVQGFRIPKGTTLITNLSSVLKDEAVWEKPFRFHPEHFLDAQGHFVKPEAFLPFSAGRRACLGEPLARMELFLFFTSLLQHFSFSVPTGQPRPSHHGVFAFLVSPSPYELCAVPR
- assay-summary: Metabolic stability in human liver microsomes with CYP 2D6 inhibitor Quinidine
- Type: in vitro ADME
- setup-conditions: pH 7.4, with quinidine 20 µM, 1 μM + Quinidine (20 μM)
readout-name: half-life at 1 µM (h)
# unit: h | format: bare number

Query block: Return half-life at 1 µM for the following molecule: O=C1Nc2ccccc2N(C(=O)CCl)c2ccc(F)cc21 [Compound 6]
Result block: 1.07

----------
- assay-summary: in vitro
- setup-conditions: mouse, microsomes, pH 7.4
readout-name: microsomal CLint at 1 μM (µL/min/mg)
// units = µL/min/mg; emit number, no label

Query block: Tell me measured microsomal CLint at 1 μM for O=C1Nc2ccccc2N(C(=O)CCl)c2ccc(F)cc21 [Compound 6] please.
Result block: 24.3

----------
- System: MDR1
- assay-summary: in vitro
- setup-conditions: dog, MDCK-MDR1
- Description: Digoxin is used as reference and lucifer yellow is used as the integrity marker. […] Papp, efflux ratio and percent recovery are calculated.
readout-name: Papp A→B at 60 min, 5 µM

Query block: State its Papp A→B at 60 min, 5 µM for this molecule: `O=C1Nc2ccccc2N(C(=O)CCl)c2ccc(F)cc21`
Result block: 26 ×10⁻⁶ cm/s

----------
- Tested on: MDR1
- assay-summary: in vitro
- setup-conditions: dog, MDCK-MDR1
readout-name: efflux ratio at 60 min, 5 µM

Query block: State its efflux ratio at 60 min, 5 µM: O=C1Nc2ccccc2N(C(=O)CCl)c2ccc(F)cc21 [Compound 6]
Result block: < 2

----------
Kindly state microsomal CLint at 1 μM for each of the entries shown.
- tested-target: CYP 2C19 (Homo sapiens)
- Construct: The experiment was conducted in human liver microsomes; from tissue; host or cells: human liver microsomes
- Sequence (P33261 whole entry): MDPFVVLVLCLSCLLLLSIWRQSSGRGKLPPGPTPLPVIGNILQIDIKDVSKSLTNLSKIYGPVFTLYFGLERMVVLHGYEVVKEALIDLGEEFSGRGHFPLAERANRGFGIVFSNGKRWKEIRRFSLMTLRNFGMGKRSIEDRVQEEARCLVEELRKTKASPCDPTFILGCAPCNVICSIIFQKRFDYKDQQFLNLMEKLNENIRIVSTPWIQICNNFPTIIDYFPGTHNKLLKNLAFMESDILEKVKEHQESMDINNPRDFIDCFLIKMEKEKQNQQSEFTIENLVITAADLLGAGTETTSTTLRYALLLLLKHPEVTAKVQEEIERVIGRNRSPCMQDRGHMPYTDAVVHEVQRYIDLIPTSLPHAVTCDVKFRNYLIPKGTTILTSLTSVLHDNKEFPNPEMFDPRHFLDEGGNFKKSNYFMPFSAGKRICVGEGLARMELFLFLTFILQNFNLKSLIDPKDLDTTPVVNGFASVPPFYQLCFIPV
- assay-summary: Metabolic stability in human liver microsomes with CYP 2C19 inhibitor Nootkatone
- Assay type: in vitro ADME
- setup-conditions: pH 7.4, with Nootkatone 20 μM, 1 μM + Nootkatone (20 μM), read-out: mCLint
Write it as a number; the unit µL/min/mg goes unstated.

Query block: Indicate the recorded microsomal CLint at 1 μM value for this molecule: O=C1Nc2ccccc2N(C(=O)CCl)c2ccc(F)cc21 [Compound 6]
Result block: 25.4

Query block: Supply microsomal CLint at 1 μM value. Item: COc1ccc2[nH]c([S+]([O-])Cc3ncc(C)c(OC)c3C)nc2c1 (centres unmarked) [Omeprazole, reference compound]
Result block: 23.4

----------
- assay-summary: Solubility analysis (kinetic method, PBS pH 7.4)
- Type: physicochemical
- setup-conditions: phosphate buffered saline, aqueous buffer, kinetic from dmso stock, phosphate buffer saline (pH-7.4)
readout-name: solubility at 90 min

Query block: Retrieve solubility at 90 min measured for `O=C1Nc2ccccc2N(C(=O)CCl)c2ccc(F)cc21` and print it.
Result block: > 200 µM
